Where do the numbers come from? From patent EP4029501A1.

Listing of recorded EC50 by entry.
- Tested on: muscle progenitors derived from DMD hiPSC
- testProtocol: Myotube assay: total myotube area per well (alpha-actinin staining)
- Format: cell-based, human
- conditionSet: Homo sapiens, Myotube, 72 h, myogenic activity, half-maximal generation of myotubes; 10 points dose-response 1.5 nM to 30 µM; 3 days; DMD or WT cell source not given
Counter-ions that a name gives are not always drawn.

Some compounds with known EC50 results, for comparison:
In [3]: df
Out[3]:
                                   compound                           targetundertest     result
0  CSc1cc(Oc2ccnc(N)c2)ccc1NC(=O)Nc1cc(C(C)(C)C)nn1-c1ccccc1 [(bj), hydrochloride]  muscle progenitors derived from DMD hiPSC  ≥ 5000 nM
1  CSc1cc(Oc2ccnc3c2CCC(=O)N3)ccc1NC(=O)Nc1cncc(C(F)(F)F)c1  muscle progenitors derived from DMD hiPSC  ≥ 5000 nM

Reported EC50, compound `CCSc1cc(Oc2ccnc3[nH]c(=O)cnc23)ccc1NC(=O)Nc1cc(C(C)(C)C)nn1-c1ccccc1` : ____
< 500 nM

Requested field: EC50. Item: `CSc1cc(Oc2ccnc(NC(C)=O)c2)ccc1NC(=O)Nc1cc(C(C)(C)C)nn1-c1ccccc1`
500 to 1000 nM

Param item = `CSc1cc(Oc2ccnc(N(CCN(C)C)C(=O)OC(C)(C)C)c2)ccc1NC(=O)Nc1cc(C(C)(C)C)nn1-c1ccccc1` ; retrieve measured EC50.
≥ 5000 nM

Could you tell me which EC50 is on file for `CSc1cc(Oc2ccnc3c2OCC(=O)N3)ccc1NC(=O)Nc1cc(C(C)(C)C)nn1-c1ccccc1` ?
< 500 nM

Item under review: `Cc1nc2c(Oc3ccc(NC(=O)Nc4cc(C(C)(C)C)nn4-c4ccccc4)c(F)c3)ccnc2c(=O)[nH]1` . Reported EC50?
1000 to 5000 nM

Please look up its EC50: `CCOC(=O)Nc1cc(Oc2ccc(NC(=O)Nc3cc(C(C)(C)C)on3)c(SC)c2)ccn1`
< 500 nM
